The compounds listed here are annotated with their pIC50.
System: HeLa
Assay Explanation: Cytotoxicity against human HeLa cells assessed as reduction in cell viability using compound addition to cell culture cells in log phase of growth and incubated for 48 hrs by MTT assay
Type: functional, cell-based
Run Parameters: Homo sapiens, HeLa, 48 h; read-out: IC50
pIC50: −log10 of the molar value.

Item Smiles	Limit Qualifier	pIC50
CC1=C(CCl)C(=O)O[C@@H]([C@@H](C)[C@H]2CC[C@H]3[C@@H]4C[C@H]5O[C@]56[C@@H](O)C=CC(=O)[C@]6(C)[C@H]4CC[C@]23C)C1	=	5.55
COCC1=C(C)C[C@H]([C@@H](C)[C@H]2CC[C@H]3[C@@H]4C[C@H]5O[C@]56[C@@H](O)[C@@H](OC)CC(=O)[C@]6(C)[C@H]4CC[C@]23C)OC1=O	<	4.40
CCCC(=O)OCC1=C(C)C[C@H]([C@@H](C)[C@H]2CC[C@H]3[C@@H]4C[C@H]5O[C@]56[C@@H](OC(=O)CCC)C=CC(=O)[C@]6(C)[C@H]4CC[C@]23C)OC1=O	=	5.80
CNc1ccccc1C(=O)OCC1=C(C)C[C@H]([C@@H](C)[C@H]2CC[C@H]3[C@@H]4C[C@H]5O[C@]56[C@@H](O)C=CC(=O)[C@]6(C)[C@H]4CC[C@]23C)OC1=O	=	5.38
COC(=O)CCC(=O)OCC1=C(C)C[C@H]([C@@H](C)[C@H]2CC[C@H]3[C@@H]4C[C@H](Cl)[C@]5(O)[C@@H](OC(=O)CCC(=O)OC)C=CC(=O)[C@]5(C)[C@H]4CC[C@]23C)OC1=O	=	5.10
CC1=C(C)C(=O)O[C@@H]([C@@H](C)[C@H]2CC[C@H]3[C@@H]4C[C@H]5O[C@]56[C@@H](O)CC[C@@H](O)[C@]6(C)[C@H]4CC[C@]23C)C1	<	4.40
CC1=C(CO)C(=O)O[C@@H]([C@@H](C)[C@H]2CC[C@H]3[C@@H]4C[C@H](Cl)[C@]5(O)[C@@H](O)C=CC(=O)[C@]5(C)[C@H]4CC[C@]23C)C1	=	4.76
CCCCN[C@H]1CC(=O)[C@]2(C)[C@H]3CC[C@]4(C)[C@@H]([C@H](C)[C@H]5CC(C)=C(CO)C(=O)O5)CC[C@H]4[C@@H]3C[C@H]3O[C@]32[C@H]1O	=	5.08
COC(=O)CCC(=O)OCC1=C(C)C[C@H]([C@@H](C)[C@H]2CC[C@H]3[C@@H]4C[C@H]5O[C@]56[C@@H](OC(=O)CCC(=O)OC)C=CC(=O)[C@]6(C)[C@H]4CC[C@]23C)OC1=O	=	5.54
COC(=O)CCC(=O)OCC1=C(C)C[C@H]([C@@H](C)[C@H]2CC[C@H]3[C@@H]4C[C@H]5O[C@]56[C@@H](O)C=CC(=O)[C@]6(C)[C@H]4CC[C@]23C)OC1=O	=	5.54
COCC1=C(C)C[C@H]([C@@H](C)[C@H]2CC[C@H]3[C@@H]4C[C@H]5O[C@]56[C@@H](O)C=CC(=O)[C@]6(C)[C@H]4CC[C@]23C)OC1=O	=	5.48
CCCC(=O)OCC1=C(C)C[C@H]([C@@H](C)[C@H]2CC[C@H]3[C@@H]4C[C@H]5O[C@]56[C@@H](O)C=CC(=O)[C@]6(C)[C@H]4CC[C@]23C)OC1=O	=	5.92
CCCCCCCC(=O)OCC1=C(C)C[C@H]([C@@H](C)[C@H]2CC[C@H]3[C@@H]4C[C@H](Cl)[C@]5(O)[C@@H](O)C=CC(=O)[C@]5(C)[C@H]4CC[C@]23C)OC1=O	=	4.48
CC1=C(CO)C(=O)O[C@@H]([C@@H](C)[C@H]2CC[C@H]3[C@@H]4C[C@@H](O)[C@]56ON[C@H](CC(=O)[C@]5(C)[C@H]4CC[C@]23C)[C@@H]6O)C1	<	4.40
C[C@@H]([C@H]1CC[C@H]2[C@@H]3C[C@H]4O[C@]45[C@@H](O)[C@H]4O[C@H]4C(=O)[C@]5(C)[C@H]3CC[C@]12C)[C@H]1C[C@@]2(C)O[C@@]2(CO)C(=O)O1	<	4.40
CCCCCCCC(=O)OCC1=C(C)C[C@H]([C@@H](C)[C@H]2CC[C@H]3[C@@H]4C[C@H](Cl)[C@]5(O)[C@@H](OC(=O)CCCCCCC)C=CC(=O)[C@]5(C)[C@H]4CC[C@]23C)OC1=O	<	4.40
CC1=C(CO[Si](C)(C)C(C)(C)C)C(=O)O[C@@H]([C@@H](C)[C@H]2CC[C@H]3[C@@H]4C[C@H]5O[C@]56[C@@H](O)C=CC(=O)[C@]6(C)[C@H]4CC[C@]23C)C1	=	5.51
CC1=C(C)C(=O)O[C@@H]([C@@H](C)[C@H]2CC[C@H]3[C@@H]4C[C@H]5O[C@]56[C@@H](O)CCC(=O)[C@]6(C)[C@H]4CC[C@]23C)C1	<	4.40
